System: mutant (G9C/A166C) ModA/WtpA protein
Test: Metal binding in vitro by purified protein
Design: species or system A. ferrooxidans
Settings: pH 1.8, 1:1 molar ratio
assay-metric: binding efficiency (bound) (%)
Expressed in %, but write only the number.

| compound | system-tested | readout-units | number |
| --- | --- | --- | --- |
| [Fe+2] | mutant (G9C/A166C) ModA/WtpA protein | % | 1.3 |

Moving on to another compound below.
Ask: // binding efficiency (bound) lookup, key: [O]=[Re](=[O])(=[O])[O-] [perrhenate]
Reply: 93

###

# pKd per entry
Target: mutant ModA/WtpA protein
Test: Quenching of intrinsic tryptophan fluorescence, Langmuir isotherm fit
Settings: read-out: dissociation constant; mutant protein, pH 1.8
Would you please state pKd, meaning minus log10 of the concentration in mol/L, as a bare number?

| compound | system-tested | number |
| --- | --- | --- |
| [O]=[Cr](=[O])([O-])[O-] [chromate] | mutant ModA/WtpA protein | 6.32 |
| [O]=[Re](=[O])(=[O])[O-] [perrhenate] | mutant ModA/WtpA protein | 6.80 |
| [O]=[Mo](=[O])([O-])[O-] [molybdate] | mutant ModA/WtpA protein | 6.82 |

Moving on to another compound below.
Ask: // pKd lookup, key: [O]=[W](=[O])([O-])[O-] [tungstate]
Reply: 6.44

###

Target: wild-type ModA/WtpA protein
Assay: Quenching of intrinsic tryptophan fluorescence, Langmuir isotherm fit
Conditions: read-out: dissociation constant, pH 1.8
# Kd per entry
Expressed in nM, but write only the number.

Worked set:
| compound | system-tested | Kd, nM |
| --- | --- | --- |
| [O]=[W](=[O])([O-])[O-] [tungstate] | wild-type ModA/WtpA protein | 490 |
| [O]=[Re](=[O])(=[O])[O-] [perrhenate] | wild-type ModA/WtpA protein | 1000 |

Ask: Form field: Kd recorded for [O]=[Mo](=[O])([O-])[O-] [molybdate] with wild-type ModA/WtpA protein (enter value)
Reply: 320

Ask: Form field: Kd recorded for [O]=[Cr](=[O])([O-])[O-] [chromate] with wild-type ModA/WtpA protein (enter value)
Reply: 500

###

System: wild-type ModA/WtpA protein (AFE_1498)
Assay: Metal binding in vitro by purified protein
Parameters: species or system A. ferrooxidans
Conditions: pH 1.8, 1:1 molar ratio
assay-metric: binding efficiency (bound) (%)
Expressed in %, but write only the number.

| compound | binding efficiency (bound) (%) |
| --- | --- |
| [O]=[Re](=[O])(=[O])[O-] [perrhenate] | 1.4 |

Ask: // binding efficiency (bound) lookup, key: `[Fe+2]`
Reply: 1.7

###

Tested on: mutant (G9C/A166C) ModA/WtpA protein
Assay: Metal binding in vitro by purified protein
Set-up: species or system A. ferrooxidans
Details: pH 1.8, 1:1 molar ratio

| molecule | binding efficiency (bound) |
| --- | --- |
| [O]=[Mo](=[O])([O-])[O-] [molybdate] | nearly all |
| [O]=[Cr](=[O])([O-])[O-] [chromate] | nearly all |
| [O]=[W](=[O])([O-])[O-] [tungstate] | nearly all |

###

Tested on: wild-type ModA/WtpA protein (AFE_1498)
Assay: Metal binding in vitro by purified protein
Parameters: species or system A. ferrooxidans
Details: pH 1.8, 1:1 molar ratio
assay-metric: binding efficiency (bound)

| molecule | assay-metric | result |
| --- | --- | --- |
| [O]=[W](=[O])([O-])[O-] [tungstate] | binding efficiency (bound) | nearly all |
| [O]=[Mo](=[O])([O-])[O-] [molybdate] | binding efficiency (bound) | nearly all |
| [O]=[Cr](=[O])([O-])[O-] [chromate] | binding efficiency (bound) | nearly all |
